# inhibition values compiled below
- tgt: Aurora kinase A (Homo sapiens) (UniProt O14965)
- Sequence (O14965 whole entry): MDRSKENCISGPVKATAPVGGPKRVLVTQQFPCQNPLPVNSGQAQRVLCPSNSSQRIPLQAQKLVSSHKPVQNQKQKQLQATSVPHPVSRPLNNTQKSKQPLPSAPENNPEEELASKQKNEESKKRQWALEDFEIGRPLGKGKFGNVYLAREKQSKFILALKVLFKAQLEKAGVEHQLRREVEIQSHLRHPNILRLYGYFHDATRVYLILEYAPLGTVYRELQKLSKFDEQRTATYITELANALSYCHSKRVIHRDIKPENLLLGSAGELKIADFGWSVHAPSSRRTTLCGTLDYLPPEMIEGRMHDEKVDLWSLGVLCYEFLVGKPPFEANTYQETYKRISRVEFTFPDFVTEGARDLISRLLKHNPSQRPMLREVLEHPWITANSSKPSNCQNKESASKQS
- protocol-summary: Inhibition of Aurora A at 10 uM
Kindly report the value followed by its unit.

OC12CC3CC(C1)CC(Nc1nc(N[C@H]4CC[C@H](O)CC4)ncc1C(F)(F)F)(C3)C2    45%
OC12CC3CC(C1)CC(Nc1nc(N[C@H]4CC[C@H](O)CC4)ncc1Br)(C3)C2    69%
OC12CC3CC(C1)CC(Nc1nc(N[C@H]4CC[C@H](O)CC4)ncc1Cl)(C3)C2    65%
O=[N+]([O-])c1cnc(N[C@H]2CC[C@H](O)CC2)nc1NC12CC3CC(CC(O)(C3)C1)C2    33%
O[C@H]1CC[C@H](Nc2ncc3nnn(-c4ccccc4)c3n2)CC1    25%

Please look at this compound and report its inhibition: `OC12CC3CC(C1)CC(n1nnc4cnc(N[C@H]5CC[C@H](O)CC5)nc41)(C3)C2`
23%
